Data credit: ChEMBL document CHEMBL3507680

experimentalDetails: Human HepG2 cell viability assay in 384 well format
Assay type: toxicity, cell-based
Parameters: dose 125 nL, time 70.5 hour; concentration not given beside the values
conditionSet: HepG2 cells, read-out: Inhibition
propertyName: cytotoxicity at 70.5 h
I'd appreciate it if you wrote the number followed by its unit.

The examples below pair each entry with its known result.
CCCS(=O)(=O)N1CCN(c2cc(-n3cccc3)nc(C)n2)CC1 | -5.53%
COc1ccc(-n2cccn2)c(CN2CCC3(CCNCC3)C2)c1 | -9.48%
COCCC(=O)N1CCC(C(=O)c2cc(C)cnc2N)CC1 | -8.64%
Fc1ccc(C(CNc2ccncn2)N2CCCC2)cc1 (centres undefined) | 12.7%
O=C(N[C@@H]1CN(Cc2ccc(F)c(F)c2)C[C@H]1O)c1cscn1 | -5.02%
COCCN1CCC2(CCN(Cc3nccs3)CC2)C1=O | -8.69%

q: # cytotoxicity at 70.5 h lookup, item CS(=O)(=O)c1cccc(S(=O)(=O)NC(=O)CC2CCCCC2)c1
a: -4.36%

q: Return reported cytotoxicity at 70.5 h; argument: Cc1ccn2c(F)c(C(=O)N3CCC4(CCCN(C)C4=O)C3)nc2c1 (centres undefined)
a: -8.44%

====

experimentalDetails: Human HepG2 cell viability assay in 384 well format
Format: toxicity, cell-based
Parameters: dose 125 nL, time 70.5 hour; concentration not given beside the values
conditionSet: HepG2 cells, read-out: Inhibition
Parameter: cytotoxicity at 70.5 h. Scope: all listed entries.
# value in %; strip the unit string

The cases that follow already have their cytotoxicity at 70.5 h on record.
CCN1CCN(c2ccc(F)cc2C(C)NCc2cscn2)CC1 (stereo not drawn) | -3.66
c1cc(NCc2cscn2)cc(OCCN2CCCCC2)c1 | -2.11

Moving on to another compound below.
q: Field request: cytotoxicity at 70.5 h | item: CC(=O)c1cccc(OCC(=O)NS(=O)(=O)c2ccc(C)s2)c1
a: 28.6

====

experimentalDetails: Human HepG2 cell viability assay in 384 well format
Type: toxicity, cell-based
Set-up: dose 125 nL, time 70.5 hour; concentration not given beside the values
conditionSet: HepG2 cells, read-out: Inhibition
propertyName: cytotoxicity at 70.5 h
Please state the number and follow it with the unit.

See these solved cases before continuing.
Cc1nc(NC(=O)C(C)N(C)Cc2ccc3c(c2)OCO3)sc1C (centres undefined) | -5.16%
CN1C(=O)C2(CCN(C(=O)c3ccccc3)CC2)c2cccc(F)c21 | 0.835%
COc1cccc(CC(=O)N2CCc3ncnc(NC(C)C)c3CC2)c1 | -14%
CCc1cc(C(=O)N2CCCC2c2nc(C)c(CC)c(O)n2)on1 (centres undefined) | -6.15%
Cc1nc(C)n(CC2CCCN2CCOc2ccccc2F)n1 (centres undefined) | -3.47%
CC(C)n1cnnc1CNC(=O)c1cnc2ccccc2n1 | -3.77%

q: Form field: reported cytotoxicity at 70.5 h of CC(=O)Nc1cccc2c1ccn2CC(=O)NC(C)C
a: -2.5%

q: Would you kindly share the measured cytotoxicity at 70.5 h for O=C(c1cc(Cl)c[nH]c1=O)N1C[C@@H]2CC[C@H](C1)N(Cc1ccccc1)C2 ?
a: 12.7%

q: // returns reported cytotoxicity at 70.5 h for input CCOc1cccc(NC(=O)c2cnc(C)cn2)n1
a: -3.9%
